B1: HEEH_KT_rd6_3546 (parent)
chain: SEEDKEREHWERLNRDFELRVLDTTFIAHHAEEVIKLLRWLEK

Variants of: B1
Method Description: folding stability dG (cDNA display proteolysis); higher = more stable
Condition Info: PBS, room temperature
Please respond with reported folding stability dG for every item in the list.
Give bare numbers, in kcal/mol.

Worked cases, answers included:
Sequence Change | Reading Unit | folding stability dG
E32W | kcal/mol | 2.1
R7E | kcal/mol | 1.3
L13E | kcal/mol | 0.952
I35Y | kcal/mol | 1.33
E32V | kcal/mol | 1.79

Below are some variants; for each one, tell me its folding stability dG.
1. A28S
2. F26H
3. R12G

[1.15, 0.83, 1.16]
